- System: Saccharomyces cerevisiae
- test.protocol: protein stability index of tFT-peptide fusion (C-terminal peptide) (PSI (0-1 scale)); higher = more stable (slower turnover);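 also: PSI is a weighted mean of sequencing reads over stability bins, variants kept only with over 10 reads, mCherry proximal and sfGFP distal, peptide attached via GGGS linker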
- test.settings: genetic background: das1 deletion; temperature: 30 C
Property: protein stability index; scope: individual sequences
measured.attribute: protein stability index

construct.sequence	measured.attribute	recorded.measurement
DPKQVRIQSSWL	protein stability index	0.644
LGGVEDRWRTAT	protein stability index	0.693
QCSPGLPHAQGL	protein stability index	0.634
KKKKQKKNNNKR	protein stability index	0.676
SFVLLSSFLVFV	protein stability index	0.262

---

- Tested on: Saccharomyces cerevisiae
- test.protocol: protein stability index of tFT-peptide fusion (C-terminal peptide) (PSI (0-1 scale)); higher = more stable (slower turnover)
- test.settings: genetic background: wild type; temperature: 37 C
measured.attribute: protein stability index

construct.sequence	recorded.measurement
FFSRIIAILVLM	0.192
SPSTPQALSNFS	0.715
APLLPPALALTC	0.484
HHACLLPVRKAG	0.404
ALRLPPPPFSLY	0.461
GEGISCLLRRLT	0.544
VRMVIFSSVYLT	0.448
SWSLRLSTIFSV	0.352
VLSCVWFVVVGV	0.402
VCPCCPYVMIAG	0.494
SPTIFLPLFLTS	0.468
VLFFCLVIYVGV	0.26
ICQFFFFALLSF	0.19
WQILVRLIDFYT	0.489

---

- System: Saccharomyces cerevisiae
- test.protocol: protein stability index of tFT-peptide fusion (C-terminal peptide) (PSI (0-1 scale)); higher = more stable (slower turnover)
- test.settings: genetic background: wild type; temperature: 30 C

construct.sequence	protein stability index
FPRSCETPARAL	0.661
ARPGAWAPTEVD	0.737
FLLSLLAFRFFL	0.478
GEYLWVHRIISE	0.679
WFCFGSFILCLL	0.492
GARSARVWARAK	0.664
VPNTFVGVLICP	0.607
GGGGGLRVSCGT	0.679
YFWTHLISIPDV	0.676
FFVEKRVFFGII	0.369
RIYDNKNTGIYH	0.707
MAARGTEQGTMP	0.71
PPRTHRPPTPPQ	0.721
INKKKKMIITKI	0.427
RHPVFSSTVSYI	0.738
LPPLRVIANIRG	0.659
PPSTPPPSPPTP	0.725
RPHAFHCDPSSP	0.698
GGVGGASMSGTP	0.674
PIERISNSGKRP	0.693
PPHTALLPPAPA	0.583
ASPFASCPPSLP	0.714
VKLEEKNTINKV	0.668
RAVFFLQAHCSL	0.674
YMGDFRPAFAVT	0.64
EPPQPPSLPPLF	0.739
RDGLWCFSEFLG	0.731
RPLRRQREVCGA	0.597
TKIKETTKKKQL	0.522
PSLGLQAPTPCP	0.679
PNLARPSTPTTS	0.72
FTPDFTPKGSLS	0.791
SPSLAPSPSALL	0.598
PPHHPPPASRSQ	0.653
PHLPYCSPSFPV	0.642
GRTDRPTDINSN	0.677
ASDSNPLDPADD	0.708
CLSHSIYYSFSF	0.691
KTQKKPNNRKNI	0.682
FCRVCLAFLSGL	0.781
PTTTRSKDKVQR	0.738
PSSRRRLLPPPH	0.71
FYFMGFFFGLGM	0.516
RPSARSLVSPSP	0.716
EGGILHKKFTKS	0.696
VVGRLERRLREQ	0.674
GLTCKSTASCKV	0.693
HLPSPSLPSPYF	0.765
PAPPPPFPPSPP	0.695
PAPPPLPSAAPP	0.706
TGEFILLFSWFV	0.584
FSLSLFPYPFSL	0.755
VRARSTSCGIWC	0.692
YIIEGKRKYNRI	0.682
SLPPRPCPSHLH	0.786
CFLLCLSSSPVL	0.64
EECSYERRRTRE	0.806
PFRLSPPLPPAP	0.743
GNRWSLTVTPNR	0.69
KNCARIKERKDV	0.627
LLLFPSSFIFFY	0.629
VRGRVGYFIVRK	0.642
WGTSGAMRGTEG	0.683
DPVGRSSHQFFL	0.633
GLRRSTRSRLVF	0.593
LPLRYFSFPDPF	0.695
VSIGGLLGCVLF	0.692
PWCTPVKRGTSM	0.763
LVDAGGSTRGKP	0.643
GLGLVSWEAGGV	0.68
PPSLPLLLPPCT	0.649
PPSWTPPSPLPL	0.727
ASYGTRHSAPSV	0.678
DGKLNTASIEKV	0.684
WGGGGLVVFGWK	0.698

# credit: the supplement of paper PMC10724198
